- target-desc: Carbonic anhydrase 12 (Homo sapiens, UniProt O43570)
- Sequence (O43570 whole entry): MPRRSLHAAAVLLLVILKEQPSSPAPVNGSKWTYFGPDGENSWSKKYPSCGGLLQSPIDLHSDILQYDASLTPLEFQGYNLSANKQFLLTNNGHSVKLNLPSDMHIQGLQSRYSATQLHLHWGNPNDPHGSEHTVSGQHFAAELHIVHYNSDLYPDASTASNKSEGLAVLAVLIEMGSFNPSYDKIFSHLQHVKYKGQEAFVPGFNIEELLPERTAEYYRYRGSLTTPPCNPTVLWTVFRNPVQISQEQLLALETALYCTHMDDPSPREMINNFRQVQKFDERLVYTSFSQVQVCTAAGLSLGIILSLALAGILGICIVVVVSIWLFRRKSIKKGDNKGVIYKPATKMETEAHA
quantity: Ki (nM)
The answer is to be given in nM; state only the numeric part.

smiles-input	value-units	Ki
CCN(CC)c1ccc2c(c1)Oc1cc(N(CC)CC)ccc1C21c2ccccc2C(=O)N1CCc1ccc(S(N)(=O)=O)cc1	nM	25.3
CCN(CC)c1ccc2c(c1)Oc1cc(N(CC)CC)ccc1C21c2ccccc2C(=O)N1Cc1ccc(S(N)(=O)=O)cc1	nM	8.6
CCN(CC)c1ccc2c(c1)Oc1cc(N(CC)CC)ccc1C21c2ccccc2C(=O)N1c1ccc(S(N)(=O)=O)cc1	nM	9.1

Lab book: Ki of CCN(CC)c1ccc2c(c1)Oc1cc(N(CC)CC)ccc1C21c2ccccc2C(=O)N1c1cccc(S(N)(=O)=O)c1 noted as 10.5

###

pKi tested on Carbonic anhydrase 7 (Homo sapiens, UniProt P43166): recorded values
Sequence (P43166 whole entry): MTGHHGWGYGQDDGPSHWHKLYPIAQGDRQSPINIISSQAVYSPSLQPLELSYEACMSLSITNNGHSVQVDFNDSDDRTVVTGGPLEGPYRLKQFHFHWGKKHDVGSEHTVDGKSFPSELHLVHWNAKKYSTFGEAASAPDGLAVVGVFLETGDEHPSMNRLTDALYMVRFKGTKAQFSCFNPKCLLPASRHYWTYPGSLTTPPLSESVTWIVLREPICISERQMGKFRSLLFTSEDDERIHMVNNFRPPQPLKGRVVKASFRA
pKi field: float, defined as -log10 of concentration (mol/L).

smiles-input	experimental-value
CCN(CC)c1ccc2c(c1)Oc1cc(N(CC)CC)ccc1C21c2ccccc2C(=O)N1c1cccc(S(N)(=O)=O)c1	7.92
CCN(CC)c1ccc2c(c1)Oc1cc(N(CC)CC)ccc1C21c2ccccc2C(=O)N1Cc1ccc(S(N)(=O)=O)cc1	7.46
CCN(CC)c1ccc2c(c1)Oc1cc(N(CC)CC)ccc1C21c2ccccc2C(=O)N1CCc1ccc(S(N)(=O)=O)cc1	7.04

Field: next molecule
Observed pKi, Carbonic anhydrase 7 (Homo sapiens, UniProt P43166), CCN(CC)c1ccc2c(c1)Oc1cc(N(CC)CC)ccc1C21c2ccccc2C(=O)N1c1ccc(S(N)(=O)=O)cc1 : 7.22

###

- target-desc: Carbonic anhydrase (Candida albicans (strain SC5314 / ATCC MYA-2876) (Yeast))
- Sequence (Q5AJ71 whole entry): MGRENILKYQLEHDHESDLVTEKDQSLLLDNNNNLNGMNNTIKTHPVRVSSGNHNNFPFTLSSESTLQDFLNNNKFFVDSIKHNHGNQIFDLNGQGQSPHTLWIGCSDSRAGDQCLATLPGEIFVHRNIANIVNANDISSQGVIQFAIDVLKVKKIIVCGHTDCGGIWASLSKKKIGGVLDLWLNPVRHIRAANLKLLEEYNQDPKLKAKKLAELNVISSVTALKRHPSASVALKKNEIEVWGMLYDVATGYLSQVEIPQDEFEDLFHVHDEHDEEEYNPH
Listing: pKi of selected molecules
For clarity, pKi is expressed as the negative log10 of concentration in mol/L.

smiles-input	pKi
CCN(CC)c1ccc2c(c1)Oc1cc(N(CC)CC)ccc1C21c2ccccc2C(=O)N1c1cccc(S(N)(=O)=O)c1	5.39

CCN(CC)c1ccc2c(c1)Oc1cc(N(CC)CC)ccc1C21c2ccccc2C(=O)N1Cc1ccc(S(N)(=O)=O)cc1 has a reported pKi of 5.27

Reported pKi of CCN(CC)c1ccc2c(c1)Oc1cc(N(CC)CC)ccc1C21c2ccccc2C(=O)N1c1ccc(S(N)(=O)=O)cc1 : 5.30

So, CCN(CC)c1ccc2c(c1)Oc1cc(N(CC)CC)ccc1C21c2ccccc2C(=O)N1CCc1ccc(S(N)(=O)=O)cc1 ? Its pKi was 5.33

###

- target-desc: Carbonic anhydrase 9 (Homo sapiens)
quantity: Ki (nM)
Express it in nM; write the number only.

Below, 2 compounds whose answers are already recorded.
smiles-input	value-units	Ki
CCN(CC)c1ccc2c(c1)Oc1cc(N(CC)CC)ccc1C21c2ccccc2C(=O)N1CCc1ccc(S(N)(=O)=O)cc1	nM	19.4
CCN(CC)c1ccc2c(c1)Oc1cc(N(CC)CC)ccc1C21c2ccccc2C(=O)N1c1cccc(S(N)(=O)=O)c1	nM	24

Proceeding to the next compound to report its Ki.
CCN(CC)c1ccc2c(c1)Oc1cc(N(CC)CC)ccc1C21c2ccccc2C(=O)N1Cc1ccc(S(N)(=O)=O)cc1 has a reported Ki of 10.2

###

Ki data for Carbonic anhydrase 2 (Homo sapiens, UniProt P00918) follow.
Answer format: number, then unit.

Consider the reported Ki for these compounds:
smiles-input	target-desc	experimental-value
CCN(CC)c1ccc2c(c1)Oc1cc(N(CC)CC)ccc1C21c2ccccc2C(=O)N1Cc1ccc(S(N)(=O)=O)cc1	Carbonic anhydrase 2 (Homo sapiens, UniProt P00918)	0.98 µM
CCN(CC)c1ccc2c(c1)Oc1cc(N(CC)CC)ccc1C21c2ccccc2C(=O)N1c1cccc(S(N)(=O)=O)c1	Carbonic anhydrase 2 (Homo sapiens, UniProt P00918)	0.0215 µM
CCN(CC)c1ccc2c(c1)Oc1cc(N(CC)CC)ccc1C21c2ccccc2C(=O)N1CCc1ccc(S(N)(=O)=O)cc1	Carbonic anhydrase 2 (Homo sapiens, UniProt P00918)	0.955 µM

Ki of CCN(CC)c1ccc2c(c1)Oc1cc(N(CC)CC)ccc1C21c2ccccc2C(=O)N1c1ccc(S(N)(=O)=O)cc1 , assay on Carbonic anhydrase 2 (Homo sapiens, UniProt P00918), is 0.279 µM

###

Reported Ki, Carbonic anhydrase 1 (Homo sapiens, UniProt P00915).
Numeric answer only, unit nM assumed.

smiles-input	target-desc	experimental-value
CCN(CC)c1ccc2c(c1)Oc1cc(N(CC)CC)ccc1C21c2ccccc2C(=O)N1Cc1ccc(S(N)(=O)=O)cc1	Carbonic anhydrase 1 (Homo sapiens, UniProt P00915)	714

Measured Ki, CCN(CC)c1ccc2c(c1)Oc1cc(N(CC)CC)ccc1C21c2ccccc2C(=O)N1c1ccc(S(N)(=O)=O)cc1 : 512

Ki reported for this compound CCN(CC)c1ccc2c(c1)Oc1cc(N(CC)CC)ccc1C21c2ccccc2C(=O)N1c1cccc(S(N)(=O)=O)c1 : 311

Just so you know, measured Ki for CCN(CC)c1ccc2c(c1)Oc1cc(N(CC)CC)ccc1C21c2ccccc2C(=O)N1CCc1ccc(S(N)(=O)=O)cc1 came out at 692
